- TARGET_SYSTEM: recombinant thioredoxin reductase 1 (TrxR1) (Homo sapiens)
- ASSAY_OVERVIEW: Inhibition of recombinant TrxR1 (DTNB assay)
- Assay type: biochemical
- EXPERIMENTAL_CONDITIONS: Biological Example 1; 15 nM TrxR1, 250 μM NADPH, 15 minutes incubation; read-out: TrxR inhibition
pIC50: −log10 of the molar value. Where a name gives a salt, the structure may show the parent alone.
READOUT_NAME: pIC50

> print(dat)
                                   compound  readout.name   val
1  O=C1C=CC2C3C(=O)N(c4ccccc4)C(=O)C3C1N2Cc1ccc(Br)cc1 (stereo not shown) [Example 6, Trifluoroacetate]         pIC50  5.67
2  Cc1cccc(CN2[C@@H]3C(=O)C=C[C@H]2[C@@H]2C(=O)N(c4cccc(N5CCOCC5)c4)C(=O)[C@@H]23)c1 (relative stereo) [Example 70]         pIC50  5.65
3  CN1[C@@H]2C(=O)C=C[C@H]1[C@@H]1C(=O)N(c3ccccc3)C(=O)[C@@H]12 (relative stereo) [Example 3]         pIC50  5.51
4  O=C1C=C[C@H]2C3C(=O)N(C4CCCCC4)C(=O)C3[C@@H]1N2Cc1ccccc1 (mixture of isomers) [Example 10]         pIC50  5.57

* * *

We begin with a simple list: items and their reported pIC50.
- TARGET_SYSTEM: recombinant thioredoxin reductase 1 (TrxR1) (Homo sapiens, UniProt Q16881)
- Sequence (Q16881 whole entry): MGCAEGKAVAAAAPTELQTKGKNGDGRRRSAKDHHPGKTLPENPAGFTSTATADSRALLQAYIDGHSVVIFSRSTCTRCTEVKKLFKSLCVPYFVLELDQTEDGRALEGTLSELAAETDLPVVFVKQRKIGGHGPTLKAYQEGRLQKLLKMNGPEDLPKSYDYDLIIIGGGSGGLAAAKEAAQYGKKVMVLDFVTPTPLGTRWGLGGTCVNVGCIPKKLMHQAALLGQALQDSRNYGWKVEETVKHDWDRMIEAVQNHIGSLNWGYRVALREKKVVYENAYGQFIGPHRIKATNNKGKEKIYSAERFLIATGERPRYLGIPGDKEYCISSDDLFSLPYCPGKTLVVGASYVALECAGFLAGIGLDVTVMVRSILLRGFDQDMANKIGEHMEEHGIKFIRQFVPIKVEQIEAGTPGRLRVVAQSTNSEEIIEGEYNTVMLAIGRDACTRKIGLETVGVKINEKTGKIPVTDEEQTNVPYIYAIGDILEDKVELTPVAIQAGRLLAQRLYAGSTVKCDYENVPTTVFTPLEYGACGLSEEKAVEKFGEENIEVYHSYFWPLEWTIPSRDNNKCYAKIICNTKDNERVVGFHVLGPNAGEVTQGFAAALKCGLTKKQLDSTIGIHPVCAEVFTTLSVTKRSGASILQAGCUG
- ASSAY_OVERVIEW: Inhibition of recombinant TrxR1 (DTNB assay)
- Format: biochemical
- EXPERIMENTAL_CONDITIONS: Biological Example 1; 15 nM TrxR1, 250 μM NADPH, 15 minutes incubation; read-out: TrxR inhibition
- Procedure: Small molecule inhibition of recombinant thioredoxin reductase 1 (TrxR1) and gluthathione reductase (GR) was examined in 96-well plate format. […] Percent activity was determined using DMSO vehicle and no TrxR1 (blank) controls. […] Percent activity was determined using DMSO vehicle and no GR (blank) controls.
pIC50: −log10 of the molar value. Where a name gives a salt, the structure may show the parent alone.
READOUT_NAME: pIC50

> print(dat)
                                   molecule                             target.system  readout.name   val
1  Cc1cccc(CN2[C@@H]3C(=O)C=C[C@H]2[C@@H]2C(=O)N(c4cccc(O)c4)C(=O)[C@@H]23)c1 (relative stereo) [Example 58]  recombinant thioredoxin reductase 1 (TrxR1) (Homo sapiens, UniProt Q16881)         pIC50  6.12
2  Cc1cccc(CN2[C@@H]3C(=O)C=C[C@H]2C2C(=O)N(c4cccc(N5CCOCC5)c4)C(=O)C23)c1 (stereo partly drawn) [Example 69]  recombinant thioredoxin reductase 1 (TrxR1) (Homo sapiens, UniProt Q16881)         pIC50  5.13
3  Cc1cccc(CN2[C@@H]3C(=O)C=C[C@H]2[C@@H]2C(=O)N(c4c(C)cccc4C)C(=O)[C@@H]23)c1 (relative stereo) [Example 65]  recombinant thioredoxin reductase 1 (TrxR1) (Homo sapiens, UniProt Q16881)         pIC50  5.34
4  O=C1C=C[C@H]2[C@@H]3C(=O)N(C4CCCCC4)C(=O)[C@@H]3[C@@H]1N2Cc1ccccc1 (relative stereo) [Example 9]  recombinant thioredoxin reductase 1 (TrxR1) (Homo sapiens, UniProt Q16881)         pIC50  5.73
5  Cc1cccc(CN2[C@@H]3C(=O)C=C[C@H]2[C@@H]2C(=O)N(c4ccccc4)C(=O)[C@@H]23)c1 (relative stereo) [Example 21]  recombinant thioredoxin reductase 1 (TrxR1) (Homo sapiens, UniProt Q16881)         pIC50  5.13
6  O=C1C=CC2C3C(=O)N(c4ccccc4)C(=O)C3C1N2Cc1ccccc1Br (stereo not drawn) [Example 20, Trifluoroacetate]  recombinant thioredoxin reductase 1 (TrxR1) (Homo sapiens, UniProt Q16881)         pIC50  5.43

These data points were gathered from patent US10881653B2.
